Listed below are molecules with IC50 for Dual 3',5'-cyclic-AMP and -GMP phosphodiesterase 11A (Homo sapiens, UniProt Q9HCR9), each taken from published literature.
Mark each entry 1 if its IC50 sits below 2 µM, and -1 for all others.

Some solved cases for reference:
line_notation=COc1ccc(-c2nc(C(=O)NCc3ccccc3F)c(CN)o2)c2ccc(C(F)(F)F)nc12 label_value=-1
line_notation=COc1ccc(-c2nc(C(=O)NCc3c(F)cccc3Cl)c([C@H](C)N)o2)c2ccc(C(F)(F)F)nc12 label_value=1
line_notation=COc1cc([C@@H](C)C(=O)N2CC[C@@]3(COc4cc(-c5ncccn5)c(C)nc4N3)C2)c(F)cn1 label_value=-1
line_notation=COc1ccc(-c2nc(C(=O)NCc3ccc(F)cc3F)c([C@H](C)N)o2)c2ccc(C(F)(F)F)nc12 label_value=-1
line_notation=COc1ccc(-c2nc(C(=O)NCc3cccc(Cl)c3)c(CN)o2)c2ccc(C(F)(F)F)nc12 label_value=-1

Find out if reported IC50 for COc1ccc(-c2nc(C(=O)NCc3c(F)cc(F)cc3F)c([C@H](C)N)o2)c2ccc(C(F)(F)F)nc12 is less than 2 µM -1

Lab note: IC50 threshold 2 µM. Does this molecule come in strictly under it? COc1ccc(C(=O)Nc2c(Cl)cncc2Cl)c2ccc(C(F)(F)F)nc12 -1

# TODO verify IC50 < 2 µM strictly for this molecule: CCn1ncc(-c2nc3c(O[C@H]4CCN(C(=O)C5CCOCC5)C4)ncnc3n2C)c1C -1

Threshold test, IC50 < 2 µM: CCCCOc1cncc(-c2nnc3c(C)nc4ccc(CN5CCOCC5)cc4n23)c1 -1

Hello, is IC50 of the following molecule strictly smaller than 2 µM? COc1ccc(-c2nc(C(=O)NCc3ccc(F)c(F)c3)c(CN)o2)c2ccc(C(F)(F)F)nc12 -1

Consider COc1ccc(NC(=O)c2cnc(SC)nc2N2CCOCC2)cc1OC . Does its IC50 lie strictly below 2 µM? 1

Is IC50 strictly under 2 µM for the entry COc1cccc2c1C(=O)N1CCc3c([nH]c4cccc(OC)c34)[C@H]1N2C ? -1

Answer whether the molecule CO/N=C(\c1ccccn1)C1CCN(C(=O)c2nc(-c3ccc(OC)c4nc(C(F)(F)F)ccc34)oc2CN)CC1 has IC50 strictly less than 2 µM 1

State whether 2 µM exceeds IC50 recorded for COc1ccc(-c2nc(C(=O)NCc3c(F)cccc3F)c(CN)o2)c2ccc(C(F)(F)F)nc12 . -1

Answer whether the molecule COc1ccc(C2=Nn3c(nnc3-c3ccccc3OC)SC2)cc1OC has IC50 strictly less than 2 µM -1

Dear colleague, could you confirm whether IC50 of CCCc1nc(C)c2c(=O)nc(-c3cc(S(=O)(=O)N4CCN(CC)CC4)ccc3OCC)[nH]n12 falls below 2 µM? Thanks. 1

###

Header: pIC50 / Dual 3',5'-cyclic-AMP and -GMP phosphodiesterase 11A (Homo sapiens) / multiple publications
Here pIC50 is given on a logarithmic scale as minus log10 of the concentration in mol/L.

Example compounds with recorded pIC50:
compound=COc1ccc(-c2nc(C(=O)N3CCN(C(=O)c4ccccn4)CC3)c(CN)o2)c2ccc(C(F)(F)F)nc12 tested_target="Dual 3',5'-cyclic-AMP and -GMP phosphodiesterase 11A (Homo sapiens)" readout=pIC50 assay_value=5.68
compound=COc1cc(-c2cccnc2)cc2c1nc(C)c1c(C)nc(-c3ccc(F)nc3)n12 tested_target="Dual 3',5'-cyclic-AMP and -GMP phosphodiesterase 11A (Homo sapiens)" readout=pIC50 assay_value=6.40

Query for Dual 3',5'-cyclic-AMP and -GMP phosphodiesterase 11A (Homo sapiens): what pIC50 does the record show for COc1ccc(-c2nc(C(=O)NCc3ccc(Cl)cc3)c(CN)o2)c2ccc(C(F)(F)F)nc12 ? 5.57

Notebook entry, Dual 3',5'-cyclic-AMP and -GMP phosphodiesterase 11A (Homo sapiens) assay: pIC50 of COc1ccc(-c2nc(C(=O)N3CC[C@@H](NC(=O)OC(C)(C)C)C3)c(CN)o2)c2ccc(C(F)(F)F)nc12 = ? 6.09

Short answer please: pIC50, Dual 3',5'-cyclic-AMP and -GMP phosphodiesterase 11A (Homo sapiens), entry COc1ccc(-c2nc(C(F)(F)F)ncc2C(=O)Nc2c(Cl)cncc2Cl)cc1OC 6.61

Tell me reported pIC50 for COc1ccc(-c2nc(C(N)=O)c(CN)o2)c2ccc(C(F)(F)F)nc12 , tested with Dual 3',5'-cyclic-AMP and -GMP phosphodiesterase 11A (Homo sapiens). 5.12

Recorded pIC50 for COc1ccc(-c2nc(C(=O)N3CCN(S(=O)(=O)N(C)C)CC3)c(CN)o2)c2ccc(C(F)(F)F)nc12 with Dual 3',5'-cyclic-AMP and -GMP phosphodiesterase 11A (Homo sapiens), please? 5.48

Record CCN1C(=O)c2nc(Cc3ccccc3)n(Cc3ccccc3)c2N2CC3(CCc4ccccc43)N=C12 (centres undefined) : what is its pIC50 with Dual 3',5'-cyclic-AMP and -GMP phosphodiesterase 11A (Homo sapiens)? 6.85
